Data provenance is patent US11401262B2.

# procedure.details: Relaxometric properties: longitudinal relaxivity r1p measurement
# Format: physicochemical
# conditions: 0.47 T (20 MHz), human plasma, per mM Gd
assay.endpoint: r1p at 0.47 T 37° C., human plasma (mM⁻¹ s⁻¹)
Response body: numeric value in mM⁻¹ s⁻¹, unit text excluded.

Here's what some known entries look like.
O=C(O)CN1CCN(CC(=O)O)CCN(CC(O)CN(CCN(CC(=O)O)CC(O)CN2CCN(CC(=O)O)CCN(CC(=O)O)CCN(CC(=O)O)CC2)CC(=O)O)CCN(CC(=O)O)CC1 (stereo not shown)
10.6
O=C(O)CN1CCN(CC(=O)O)CCN(CC(O)CN(CC(O)CN2CCN(CC(=O)O)CCN(CC(=O)O)CCN(CC(=O)O)CC2)CC(O)C(O)C(O)C(O)CO)CCN(CC(=O)O)CC1 (stereo not shown)
11.5
O=C(O)CN1CCN(CC(=O)O)CCN(CC(O)CN(CC(=O)O)CC(O)CN2CCN(CC(=O)O)CCN(CC(=O)O)CCN(CC(=O)O)CC2)CCN(CC(=O)O)CC1 (stereo not shown)
9.7

Lab note: next molecule to report on.
Problem: // query r1p at 0.47 T 37° C., human plasma value for entry O=C(O)CN1CCN(CC(=O)O)CCN(CC(O)CN(CC(O)CN2CCN(CC(=O)O)CCN(CC(=O)O)CCN(CC(=O)O)CC2)CP(=O)(O)O)CCN(CC(=O)O)CC1 (stereo not shown) [Chelate Complex 2]
Solution: 12.0

---

Measured r1p at 1.41 T 37° C., saline by item
# procedure.details: Relaxometric properties: longitudinal relaxivity r1p measurement
# Type: physicochemical
# conditions: 1.41 T (60 MHz), physiologic solution, per mM Gd
Output spec: scalar in mM⁻¹ s⁻¹, unitless text.

O=C(O)CN1CCN(CC(=O)O)CCN(CC(O)CN(CC(O)CN2CCN(CC(=O)O)CCN(CC(=O)O)CCN(CC(=O)O)CC2)CC(O)C(O)C(O)C(O)CO)CCN(CC(=O)O)CC1 (stereo not shown)
9.4
O=C(O)CN1CCN(CC(=O)O)CCN(CC(O)CN(CC(=O)O)CC(O)CN2CCN(CC(=O)O)CCN(CC(=O)O)CCN(CC(=O)O)CC2)CCN(CC(=O)O)CC1 (stereo not shown)
8.5
O=C(O)CN1CCN(CC(=O)O)CCN(CC(O)CN(CCN(CC(=O)O)CC(O)CN2CCN(CC(=O)O)CCN(CC(=O)O)CCN(CC(=O)O)CC2)CC(=O)O)CCN(CC(=O)O)CC1 (stereo not shown)
7.5

Problem: I'd like to know its r1p at 1.41 T 37° C., saline. The compound in question is O=C(O)CN1CCN(CC(=O)O)CCN(CC(O)CN(CC(O)CN2CCN(CC(=O)O)CCN(CC(=O)O)CCN(CC(=O)O)CC2)CP(=O)(O)O)CCN(CC(=O)O)CC1 (stereo not shown) [Chelate Complex 2]
Solution: 9.3

---

# procedure.details: Relaxometric properties: longitudinal relaxivity r1p measurement
# Format: physicochemical
# conditions: 1.41 T (60 MHz), human plasma, per mM Gd
Entries and their r1p at 1.41 T 37° C., human plasma values follow.
Your answer should be a plain number; it is taken to be in mM⁻¹ s⁻¹.

Use the examples below as a reference point.
O=C(O)CN1CCN(CC(=O)O)CCN(CC(O)CN(CC(O)CN2CCN(CC(=O)O)CCN(CC(=O)O)CCN(CC(=O)O)CC2)CC(O)C(O)C(O)C(O)CO)CCN(CC(=O)O)CC1 (stereo not shown)
10.8
O=C(O)CN1CCN(CC(=O)O)CCN(CC(O)CN(CC(=O)O)CC(O)CN2CCN(CC(=O)O)CCN(CC(=O)O)CCN(CC(=O)O)CC2)CCN(CC(=O)O)CC1 (stereo not shown)
9.2
O=C(O)CN1CCN(CC(=O)O)CCN(CC(O)CN(CC(O)CN2CCN(CC(=O)O)CCN(CC(=O)O)CCN(CC(=O)O)CC2)CP(=O)(O)O)CCN(CC(=O)O)CC1 (stereo not shown) [Chelate Complex 2]
11.3

API: the following record is the query input.
Problem: Give the measured r1p at 1.41 T 37° C., human plasma of O=C(O)CN1CCN(CC(=O)O)CCN(CC(O)CN(CCN(CC(=O)O)CC(O)CN2CCN(CC(=O)O)CCN(CC(=O)O)CCN(CC(=O)O)CC2)CC(=O)O)CCN(CC(=O)O)CC1 (stereo not shown) .
Solution: 10.2

---

# procedure.details: Relaxometric properties: longitudinal relaxivity r1p measurement
# Assay type: physicochemical
# conditions: 0.47 T (20 MHz), physiologic solution, per mM Gd
assay.endpoint: r1p at 0.47 T 37° C., saline (mM⁻¹ s⁻¹)
The response must be a number in mM⁻¹ s⁻¹ with no trailing unit.

Examples from the recorded data:
O=C(O)CN1CCN(CC(=O)O)CCN(CC(O)CN(CC(O)CN2CCN(CC(=O)O)CCN(CC(=O)O)CCN(CC(=O)O)CC2)CP(=O)(O)O)CCN(CC(=O)O)CC1 (stereo not shown) [Chelate Complex 2]
9.0
O=C(O)CN1CCN(CC(=O)O)CCN(CC(O)CN(CCN(CC(=O)O)CC(O)CN2CCN(CC(=O)O)CCN(CC(=O)O)CCN(CC(=O)O)CC2)CC(=O)O)CCN(CC(=O)O)CC1 (stereo not shown)
7.3
O=C(O)CN1CCN(CC(=O)O)CCN(CC(O)CN(CC(O)CN2CCN(CC(=O)O)CCN(CC(=O)O)CCN(CC(=O)O)CC2)CC(O)C(O)C(O)C(O)CO)CCN(CC(=O)O)CC1 (stereo not shown)
9.3

Problem: So what does the record say about r1p at 0.47 T 37° C., saline for O=C(O)CN1CCN(CC(=O)O)CCN(CC(O)CN(CC(=O)O)CC(O)CN2CCN(CC(=O)O)CCN(CC(=O)O)CCN(CC(=O)O)CC2)CCN(CC(=O)O)CC1 (stereo not shown) ?
Solution: 8.3
